FYI, the data here is from ChEMBL document CHEMBL1629529.

Provide the reported CC50 of each item.
# Tested on: MT2
# Measurement Protocol: Cytotoxicity in human MT2 cells after 4 day by XTT assay
# Assay type: cell-based
# Protocol Conditions: mt2, 96 h

Take a look at these entries with their results.
[[record]]
smiles_input = "Cc1cc(/C=C/C#N)cc(C)c1Oc1ccc(N)c(Nc2ccc(C#N)cc2)n1"
assay_system = "MT2"
experimental_value = "5.63 µM"

[[record]]
smiles_input = "Cc1cc(C#N)cc(C)c1Oc1ccc(N)c(Nc2ccc(C#N)cc2)n1"
assay_system = "MT2"
experimental_value = "> 100 µM"

[[record]]
smiles_input = "C=CCc1cc(C)c(Oc2ccc(N)c(Nc3ccc(C#N)cc3)n2)c(C)c1"
assay_system = "MT2"
experimental_value = "14 µM"

[[record]]
smiles_input = "Cc1cc(/C=C/C#N)cc(C)c1Oc1ccc(N)c(Nc2ccc(C#N)cc2)c1"
assay_system = "MT2"
experimental_value = "8.83 µM"


Request: Could you please provide reported CC50 for Cc1cc(/C=C/C#N)cc(C)c1Oc1ccc([N+](=O)[O-])c(Nc2ccc(C#N)cc2)n1 ? Thanks!
Result: > 100 µM

---

# System: Human immunodeficiency virus 1
# Measurement Protocol: Antiviral activity against HIV1 3B infected in human MT2 cells assessed as reduction in p24 antigen level after 4 days by ELISA
# Format: functional, organism-based
# Protocol Conditions: Human immunodeficiency virus 1, 3B, MT2, 96 h; read-out: EC50
Observation Type: pEC50
One number for each entry, as −log10 of the molar value.

Consider the following illustrative entries.
[[record]]
compound = "C=CCc1cc(C)c(Oc2ccc(N)c(Nc3ccc(C#N)cc3)n2)c(C)c1"
experimental_value = 7.17

[[record]]
compound = "CC(=O)CCc1cc(C)c(Oc2ccc(N)c(Nc3ccc(C#N)cc3)n2)c(C)c1"
experimental_value = 7.26

[[record]]
compound = "Cc1cc(C#N)cc(C)c1Oc1nc(Nc2ccc(C#N)cc2)nc(N)c1Br [ETRAVIRINE]"
experimental_value = 7.39

[[record]]
compound = "Cc1cc(/C=C/C#N)cc(C)c1Oc1cc(Nc2ccc(C#N)cc2)c([N+](=O)[O-])cc1[N+](=O)[O-]"
experimental_value = 6.43

[[record]]
compound = "CC(=O)/C=C/c1cc(C)c(Oc2cc(Nc3ccc(C#N)cc3)c([N+](=O)[O-])cc2[N+](=O)[O-])c(C)c1"
experimental_value = 6.46

[[record]]
compound = "Cc1cc(/C=C/C(=O)O)cc(C)c1Oc1ccc([N+](=O)[O-])c(Nc2ccc(C#N)cc2)n1"
experimental_value = 5.09

[[record]]
compound = "Cc1cc(/C=C/C#N)cc(C)c1Oc1ccc([N+](=O)[O-])c(Nc2ccc(C#N)cc2)n1"
experimental_value = 7.31

[[record]]
compound = "Cc1cc(C(O)C[N+](=O)[O-])cc(C)c1Oc1ccc(N)c(Nc2ccc(C#N)cc2)n1.Cl (configuration not stated)"
experimental_value = 7.17


# batch size: 4; output pEC50 per entry
1. Cc1cc(C#CC2CC2)cc(C)c1Oc1ccc(N)c(Nc2ccc(C#N)cc2)n1
2. Cc1cc(C(O)C[N+](=O)[O-])cc(C)c1Oc1ccc([N+](=O)[O-])c(Nc2ccc(C#N)cc2)n1 (configuration not stated)
3. CC(=O)/C=C/c1cc(C)c(Oc2ccc([N+](=O)[O-])c(Nc3ccc(C#N)cc3)n2)c(C)c1
4. Cc1cc(Br)cc(C)c1Oc1ccc([N+](=O)[O-])c(Nc2ccc(C#N)cc2)n1

Result:
6.39
5.77
6.22
7.35

// each compound listed below needs its pEC50
1. Cc1cc(/C=C/C#N)cc(C)c1Oc1ccc([N+](=O)[O-])c(Nc2ccc(C#N)cc2)c1
2. C=CCc1cc(C)c(Oc2ccc([N+](=O)[O-])c(Nc3ccc(C#N)cc3)n2)c(C)c1
3. CC(=O)/C=C/c1cc(C)c(Oc2cc(Nc3ccc(C#N)cc3)c(N)cc2[N+](=O)[O-])c(C)c1

Result:
1. 7.43
2. 5.87
3. 7.33

---

# Measurement Protocol: Selectivity index, ratio of CC50 for human MT2 cells to EC50 for HIV1 3B
# Type: toxicity, cell-based
# Protocol Conditions: mt2
Provide the recorded Ratio CC50/EC50 for the entries that follow.
Answers are plain numbers.

Past entries and their recorded results:
[[record]]
molecule = "Cc1cc(C(O)C[N+](=O)[O-])cc(C)c1Oc1ccc(N)c(Nc2ccc(C#N)cc2)n1.Cl (centres undefined)"
observation_type = "Ratio CC50/EC50"
experimental_value = 303

[[record]]
molecule = "Cc1cc(Br)cc(C)c1Oc1ccc(N)c(Nc2ccc(C#N)cc2)n1"
observation_type = "Ratio CC50/EC50"
experimental_value = 291


Please report Ratio CC50/EC50 for every entry that follows.
1. Cc1cc(Br)cc(C)c1Oc1ccc([N+](=O)[O-])c(Nc2ccc(C#N)cc2)n1
2. Cc1cc(C#CC2CC2)cc(C)c1Oc1ccc(N)c(Nc2ccc(C#N)cc2)n1
3. Cc1cc(C(O)C[N+](=O)[O-])cc(C)c1Oc1ccc([N+](=O)[O-])c(Nc2ccc(C#N)cc2)n1 (centres undefined)

Result:
[1447, 14, 16]

---

# System: Human immunodeficiency virus 1
# Measurement Protocol: Resistance index, ratio of EC50 for multidrug resistant HIV1 RTMDR to EC50 for wild type HIV1 NL4-3
# Type: functional
Observation Type: Ratio EC50
Give bare numbers.

These solved cases illustrate the format of a correct answer.
[[record]]
smiles_input = "C#Cc1cc(C)c(Oc2ccc([N+](=O)[O-])c(Nc3ccc(C#N)cc3)n2)c(C)c1"
observation_type = "Ratio EC50"
experimental_value = 1.94

[[record]]
smiles_input = "Cc1cc(Br)cc(C)c1Oc1ccc([N+](=O)[O-])c(Nc2ccc(C#N)cc2)n1"
observation_type = "Ratio EC50"
experimental_value = 1.55

[[record]]
smiles_input = "Cc1cc(/C=C/C#N)cc(C)c1Oc1ccc([N+](=O)[O-])c(Nc2ccc(C#N)cc2)c1"
observation_type = "Ratio EC50"
experimental_value = 1.63

[[record]]
smiles_input = "Cc1cc(Br)cc(C)c1Oc1ccc(N)c(Nc2ccc(C#N)cc2)n1"
observation_type = "Ratio EC50"
experimental_value = 0.93

[[record]]
smiles_input = "Cc1cc(C#N)cc(C)c1Oc1ccc(N)c(Nc2ccc(C#N)cc2)n1"
observation_type = "Ratio EC50"
experimental_value = 1.41


Request: Identify the reported Ratio EC50 for the following entry. Cc1cc(I)cc(C)c1Oc1ccc([N+](=O)[O-])c(Nc2ccc(C#N)cc2)n1
Result: 1.55

---

Exercise: state measured Ratio CC50/EC50 for each of the compounds provided.
# Measurement Protocol: Selectivity index, ratio of CC50 for human TZM-bl cells to EC50 for HIV1 NL4-3
# Type: toxicity, cell-based
# Protocol Conditions: tzm-bl
Give bare numbers.

[[record]]
smiles_input = "Cc1cc(C#CC2CC2)cc(C)c1Oc1ccc(N)c(Nc2ccc(C#N)cc2)n1"
observation_type = "Ratio CC50/EC50"
experimental_value = 82

[[record]]
smiles_input = "CC(=O)CCc1cc(C)c(Oc2ccc(N)c(Nc3ccc(C#N)cc3)n2)c(C)c1"
observation_type = "Ratio CC50/EC50"
experimental_value = 4744


# input for lookup
Request: Report measured Ratio CC50/EC50; entry is Cc1cc(Br)cc(C)c1Oc1ccc(N)c(Nc2ccc(C#N)cc2)n1
Result: 2132

---

# Measurement Protocol: Selectivity index, ratio of CC50 for human MT2 cells to EC50 for HIV1 3B
# Format: toxicity, cell-based
# Protocol Conditions: mt2
Please provide measured Ratio CC50/EC50 for the entries that follow.
Answers are plain numbers.

[[record]]
smiles_input = "Cc1cc(/C=C/C#N)cc(C)c1Oc1cc(Nc2ccc(C#N)cc2)c([N+](=O)[O-])cc1[N+](=O)[O-]"
experimental_value = 59.35

[[record]]
smiles_input = "C=CCc1cc(C)c(Oc2ccc(N)c(Nc3ccc(C#N)cc3)n2)c(C)c1"
experimental_value = 209


Proceeding to the next compound to report its Ratio CC50/EC50.
Request: # return recorded Ratio CC50/EC50 for input C=CCc1cc(C)c(Oc2ccc([N+](=O)[O-])c(Nc3ccc(C#N)cc3)n2)c(C)c1
Result: 27.37

---

# Tested on: MT2
# Measurement Protocol: Cytotoxicity in human MT2 cells after 4 day by XTT assay
# Format: cell-based
# Protocol Conditions: mt2, 96 h
Kindly supply the reported CC50 values for the records listed here.
Give bare numbers, in µM.

[[record]]
compound = "Cc1cc(Br)cc(C)c1Oc1ccc([N+](=O)[O-])c(Nc2ccc(C#N)cc2)n1"
assay_system = "MT2"
observation_type = "CC50"
experimental_value = 65.1

[[record]]
compound = "Cc1cc(/C=C/C#N)cc(C)c1Oc1cc(Nc2ccc(C#N)cc2)c([N+](=O)[O-])cc1[N+](=O)[O-]"
assay_system = "MT2"
observation_type = "CC50"
experimental_value = 21.7

[[record]]
compound = "Cc1cc(/C=C/C#N)cc(C)c1Oc1cc(Nc2ccc(C#N)cc2)c(N)cc1N"
assay_system = "MT2"
observation_type = "CC50"
experimental_value = 18.9

[[record]]
compound = "CC(=O)CCc1cc(C)c(Oc2ccc(N)c(Nc3ccc(C#N)cc3)n2)c(C)c1"
assay_system = "MT2"
observation_type = "CC50"
experimental_value = 18.4


Let us examine a further case.
Request: Give CC50 for Cc1cc(C(O)C[N+](=O)[O-])cc(C)c1Oc1ccc(N)c(Nc2ccc(C#N)cc2)n1.Cl (configuration not stated)
Result: 20.6
